Read-out: Interleukin-1 alpha (IL1a), IL1A (gene 3552)
Test: BSK_BE3C_IL1a: BioMAP Diversity Plus: BE3C Assay for Interleukin-1 alpha (IL1a) Biomarker Activity (AID 2283016)
Settings: primary human bronchial epithelial cells; actives raise or lower the signal
Calls of active or inactive are those of the source. How the source made its calls: active means hit-call score of the fitted dose curve at least 0.9, where 1 is the maximum; inactive means score below 0.9.
Your reply should match one of these outcome classes. yes (active), no (inactive)

Would you please look over these solved cases?
Per the records of this test, what outcome belongs to CCCCC(O)(Cn1cncn1)c1ccc(Cl)cc1Cl (stereo unspecified) ?
no

Per the records of this test, what outcome belongs to CCCC(=NOCC)C1=C(O)CC(CC(C)SCC)CC1=O (stereo unspecified) ?
no

Per the records of this test, what outcome belongs to COC(=O)c1c(C(F)F)nc(C(F)(F)F)c(C2=NCCS2)c1CC(C)C ?
no

Per the records of this test, what outcome belongs to OC(c1ccc(Cl)cc1)(c1ccc(Cl)cc1)C(Cl)(Cl)Cl ?
yes

Per the records of this test, what outcome belongs to CSC(=O)c1c(C(F)F)nc(C(F)(F)F)c(C(=O)SC)c1CC(C)C ?
no

Per the records of this test, what outcome belongs to CC1(C)CON(Cc2ccccc2Cl)C1=O ?
no

Per the records of this test, what outcome belongs to CC(C)(C)C(=O)C(Oc1ccc(Cl)cc1)n1cncn1 (stereo unspecified) ?
no

Per the records of this test, what outcome belongs to CC(C)Nc1nc(Cl)nc(NC(C)C)n1 ?
no

Per the records of this test, what outcome belongs to CC(C)=CC1C(C(=O)OCc2coc(Cc3ccccc3)c2)C1(C)C (stereo unspecified) ?
no

Per the records of this test, what outcome belongs to COC(=O)N(C(=O)N1CO[C@@]2(C(=O)OC)Cc3cc(Cl)ccc3C2=N1)c1ccc(OC(F)(F)F)cc1 ?
no

New cases:
Per the records of this test, what outcome belongs to CC(C)N1C(=O)c2ccccc2NS1(=O)=O ?
no
